Where do these numbers come from? They come from the RNAGym collection of RNA variant scans (doi:10.7554/elife.80360).

B1: Twister Ribozyme (parent)
chain: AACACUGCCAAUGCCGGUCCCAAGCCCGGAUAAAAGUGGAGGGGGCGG

# Variants of: B1
# procedure text: self-cleavage, relative activity (ratio to wild type); higher = more cleavage; co-transcriptional
Documented self-cleavage across a set of variants
measured attribute: self-cleavage

INSERT INTO measurements (variant_id, reading) VALUES
  ('G13U G42A', 0.139),
  ('G28A G47C', 0.283),
  ('G28C G47C', 0.254),
  ('C5G G38U', 0.165),
  ('G44U G48A', 0.717),
  ('C9U C20G', 0.0672),
  ('G17A G44U', 0.704),
  ('C5G C26G', 0.122),
  ('G28U G41A', 0.459),
  ('G17U U31C', 0.495),
  ('C19G C27G', 0.0733),
  ('A10G U31A', 0.696),
  ('A10G G38C', 0.93),
  ('A2U A30U', 0.713),
  ('G7C G41A', 0.0519),
  ('C5G C9U', 0.13),
  ('A1G C9G', 0.315),
  ('U6C G45U', 0.495),
  ('G29A', 0.915),
  ('U18C C25A', 0.105),
  ('G7A G47A', 0.271),
  ('C8A G29A', 0.327);
